# IC50 per entry
biological target: UniProt P08235; assay: In vitro evaluation of MR antagonistic activity (HEK293/Gal4/MR cell line, Bright Glo); format: cell-based; conditions: HEK293/Gal4/MR cells, aldosterone final 1 nmol, 24 h incubation
Sequence (P08235 726-984 limits assumed): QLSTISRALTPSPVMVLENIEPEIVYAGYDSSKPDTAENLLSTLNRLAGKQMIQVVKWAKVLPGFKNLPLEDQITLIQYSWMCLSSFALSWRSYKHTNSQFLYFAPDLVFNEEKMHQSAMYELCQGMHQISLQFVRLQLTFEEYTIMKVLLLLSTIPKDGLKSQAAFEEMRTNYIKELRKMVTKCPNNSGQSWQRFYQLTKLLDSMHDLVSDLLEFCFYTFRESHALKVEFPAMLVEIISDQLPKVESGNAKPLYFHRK
property: IC50 (nM)

| molecule | assayed target | value units | numeric value |
| --- | --- | --- | --- |
| Cc1nnn(C[C@H]2COc3cc(F)ccc3N2Cc2ccc3c(c2)NC(=O)CO3)n1 | UniProt P08235 | nM | 78 |
| Cn1nnc(C[C@H]2COc3cc(F)ccc3N2Cc2ccc3c(c2)NC(=O)CO3)n1 | UniProt P08235 | nM | 80 |
| O=C1COc2ccc(CN3c4ccc(F)cc4OC[C@@H]3Cc3nc(CO)no3)cc2N1 | UniProt P08235 | nM | 107 |
| [2H]C([2H])([2H])n1nnc(C[C@H]2COc3cc(F)ccc3N2Cc2ccc3c(c2)NC(=O)CO3)n1 | UniProt P08235 | nM | 130 |
| CNC(=O)CC1COc2cc(F)cc(F)c2N1Cc1ccc2c(c1)NC(=O)CO2 (centres unmarked) | UniProt P08235 | nM | 325 |
| Cc1noc(CC2COc3cc(F)ccc3N2C(C)c2ccc3c(c2)NC(=O)CO3)n1 (single isomer, unassigned) [Compound 35b] | UniProt P08235 | nM | 76.6 |
| Cn1nnc(C[C@H]2COc3cc(F)ccc3N2Cc2cc3c(cc2F)OCC(=O)N3)n1 | UniProt P08235 | nM | 68 |
| O=C1COc2cc(F)c(CN3c4ccc(F)cc4OC[C@@H]3Cn3nccn3)cc2N1 | UniProt P08235 | nM | 27 |
| Cc1noc(CC2COc3cc(F)ccc3N2C(C)c2ccc3c(c2)NC(=O)CO3)n1 (single isomer, unassigned) [Compound 35a] | UniProt P08235 | nM | 251 |
| CNC(=O)CC1COc2cc(F)ccc2N1C(C)c1ccc2c(c1)NC(=O)CO2 (centres unmarked) | UniProt P08235 | nM | 273 |
| Cc1c(CN2c3ccc(F)cc3OC[C@@H]2Cc2nnn(C)n2)ccc2c1NC(=O)CO2 | UniProt P08235 | nM | 43.9 |
| CNC(=O)CC1COc2cc(F)cc(F)c2N1Cc1cc(C)c2c(c1)NC(=O)CO2 (single isomer, unassigned) | UniProt P08235 | nM | 130 |
| Cn1nnc(C[C@H]2COc3cc(F)ccc3N2Cc2ccc3c(c2Cl)NC(=O)CO3)n1 | UniProt P08235 | nM | 22.6 |
| CS(=O)(=O)CC1COc2cc(F)ccc2N1Cc1ccc2c(c1)NC(=O)CO2 (centres unmarked) | UniProt P08235 | nM | 519 |
| O=C1COc2ccc(CN3c4ccc(F)cc4OC[C@@H]3Cn3nccn3)cc2N1 | UniProt P08235 | nM | 50 |
| Cc1noc(C[C@H]2COc3cc(F)ccc3N2Cc2cc3c(cc2F)OCC(=O)N3)n1 | UniProt P08235 | nM | 66 |
| CCNC(=O)C[C@H]1COc2cc(F)ccc2N1Cc1ccc2c(c1)NC(=O)CO2 | UniProt P08235 | nM | 403 |
| Cc1noc(C[C@H]2COc3cc(F)ccc3N2Cc2cc(Cl)c3c(c2)NC(=O)CO3)n1 | UniProt P08235 | nM | 15 |
| [2H]C([2H])([2H])c1noc(C[C@H]2COc3cc(F)ccc3N2Cc2cc3c(cc2F)OCC(=O)N3)n1 | UniProt P08235 | nM | 22 |
| [2H]C([2H])(c1ccc2c(c1)NC(=O)CO2)N1c2ccc(F)cc2OC[C@@H]1Cc1nc(C)no1 | UniProt P08235 | nM | 29 |
| O=C1COc2ccc(CN3c4ccc(F)cc4OC[C@@H]3Cc3c[nH]nn3)c(F)c2N1 | UniProt P08235 | nM | 50.8 |
| Cc1nc(C[C@H]2COc3cc(F)ccc3N2Cc2cc(Cl)c3c(c2)NC(=O)CO3)no1 | UniProt P08235 | nM | 72 |
| Cc1nnn(C[C@H]2COc3cc(F)ccc3N2Cc2cc3c(cc2F)OCC(=O)N3)n1 | UniProt P08235 | nM | 32 |
| NC(=O)CC1COc2cc(F)cc(F)c2N1Cc1ccc2c(c1Cl)NC(=O)CO2 (single isomer, unassigned) [Compound 43a] | UniProt P08235 | nM | 18 |
| Cc1noc(C[C@H]2COc3cc(F)ccc3N2Cc2ccc3c(c2)NC(=O)CO3)n1 | UniProt P08235 | nM | 27 |
| Cn1nnc(C[C@H]2COc3cc(F)ccc3N2Cc2ccc3c(c2F)NC(=O)CO3)n1 | UniProt P08235 | nM | 11 |
